molecular target: amyloid β-peptide 1-40 (Aβ1-40) (UniProt P05067); assay: quenching of intrinsic Tyr10 fluorescence of Aβ1-40 in solution by added iAβ, non-linear regression to a rectangular hyperbola
reportedEndpoint: pKd
pKd here is simply -log10 of the concentration when that concentration is written in mol/L.

Value lookup for pKd; key = RDLPFFPVPID [inhibitor of Aβ fibrillogenesis peptide (iAβ)] 7.12
